Each entry below lists one item and its recorded viability at 20 µM value.
ASSAY TEXT: in vitro
ASSAY SETUP: human, Relative Viability (%)
Structures can show the parent of a compound that is named as a salt.
MEASURE NAME: viability at 20 µM

{"columns": ["COMPOUND", "MEASURE NAME", "RECORDED VALUE"],
 "data": [
  ["CN(C)CCC(c1ccc(Cl)cc1)c1ccccn1 (centres unmarked) [Chlorpheniramine Maleate]", "viability at 20 µM", "102%"],
  ["CCN(CC)CC#CCOC(=O)C(O)(c1ccccc1)C1CCCCC1 (centres unmarked)", "viability at 20 µM", "104%"],
  ["CN(C)C(=O)C(CCN1CCC(O)(c2ccc(Cl)cc2)CC1)(c1ccccc1)c1ccccc1 [Loperamide HCl]", "viability at 20 µM", "116%"],
  ["O=c1ccc2ccc(OCCCCN3CCN(c4cccc5sccc45)CC3)cc2[nH]1", "viability at 20 µM", "97.2%"],
  ["CN1[C@@H]2CC[C@H]1C[C@@H](OC(c1ccccc1)c1ccccc1)C2 [Benztropine mesylate]", "viability at 20 µM", "108%"],
  ["CN1CC2c3ccccc3Oc3ccc(Cl)cc3C2C1 (centres unmarked)", "viability at 20 µM", "87.1%"],
  ["Cc1c(-c2ccccc2)oc2c(C(=O)OCCN3CCCCC3)cccc2c1=O [Flavoxate HCl]", "viability at 20 µM", "118%"],
  ["CN(C)CCc1c[nH]c2ccc(Cn3cncn3)cc12 [Rizatriptan Benzoate]", "viability at 20 µM", "106%"],
  ["C[N+]1(C)CCC(=C(c2ccccc2)c2ccccc2)CC1 [Diphemanil Methylsulfate]", "viability at 20 µM", "98.2%"],
  ["COc1ccc2cccc(CCNC(C)=O)c2c1", "viability at 20 µM", "89.1%"],
  ["CN[C@H]1CC[C@@H](c2ccc(Cl)c(Cl)c2)c2ccccc21 [Sertraline HCl]", "viability at 20 µM", "124%"],
  ["COc1cc2nc(N3CCN(C(=O)c4ccco4)CC3)nc(N)c2cc1OC [Prazosin HCl]", "viability at 20 µM", "76.9%"],
  ["Clc1ccc2nsnc2c1NC1=NCCN1 [Tizanidine HCl]", "viability at 20 µM", "78.9%"],
  ["CN(C)[C@@H](CCOc1cccc2ccccc12)c1ccccc1 [Dapoxetine HCl]", "viability at 20 µM", "110%"],
  ["CC(C)(C)c1ccc(C(=O)CCCN2CCC(OC(c3ccccc3)c3ccccc3)CC2)cc1", "viability at 20 µM", "105%"],
  ["COc1ccccc1N1CCN(CC(O)COc2cccc3ccccc23)CC1 (centres unmarked)", "viability at 20 µM", "102%"],
  ["CN(C)CCCN1c2ccccc2Sc2ccc(Cl)cc21 [Chlorpromazine HCl]", "viability at 20 µM", "115%"],
  ["NC[C@H](CC(=O)O)c1ccc(Cl)cc1 [(R)-baclofen]", "viability at 20 µM", "112%"],
  ["CCN1CCC[C@H]1CNC(=O)c1cc(S(N)(=O)=O)ccc1OC [Levosulpiride]", "viability at 20 µM", "104%"],
  ["CCN(C)C(=O)Oc1cccc([C@H](C)N(C)C)c1 [Rivastigmine Tartrate]", "viability at 20 µM", "116%"],
  ["CNC(=C[N+](=O)[O-])NCCSCc1ccc(CN(C)C)o1", "viability at 20 µM", "109%"],
  ["CN(C)CC(c1ccc(O)cc1)C1(O)CCCCC1 (centres unmarked) [Desvenlafaxine Succinate]", "viability at 20 µM", "98.8%"],
  ["CC(CCc1ccccc1)NCC(O)c1ccc(O)c(C(N)=O)c1 (centres unmarked) [Labetalol HCl]", "viability at 20 µM", "101%"],
  ["OCCOCCN1CCN(C2=Nc3ccccc3Sc3ccccc32)CC1 [Quetiapine Fumarate]", "viability at 20 µM", "104%"],
  ["CC(C)(C)NC[C@H](O)COc1nsnc1N1CCOCC1 [Timolol Maleate]", "viability at 20 µM", "91.2%"],
  ["CN(C)CC/C=C1/c2ccccc2COc2ccc(CC(=O)O)cc21 [Olopatadine HCl]", "viability at 20 µM", "122%"],
  ["CN1CCN2c3ccccc3Cc3ccccc3C2C1 (centres unmarked) [Mianserin HCl]", "viability at 20 µM", "91.9%"],
  ["CCCN(CCc1cccs1)[C@H]1CCc2c(O)cccc2C1", "viability at 20 µM", "147%"],
  ["CCN(Cc1ccc(Cl)nc1)/C(=C/[N+](=O)[O-])NC", "viability at 20 µM", "110%"],
  ["Cc1ccc(OCC(O)C(C)NC(C)C)c2c1CCC2 (centres unmarked)", "viability at 20 µM", "106%"],
  ["O=C(c1ccc(OCCCc2cnc[nH]2)cc1)C1CC1", "viability at 20 µM", "131%"],
  ["COc1cc2c(cc1OC)[C@@H]1Cc3ccc(OC)c(OC)c3CN1CC2", "viability at 20 µM", "112%"]
]}
